Molecular target: PKD2 (Homo sapiens, UniProt Q9BZL6)
Construct: made in house; host or cells: HEK293T cells, transient transfection with pDEST27-PRKD2, stimulated with 500 nM PDB before lysis
Sequence (Q9BZL6 whole entry): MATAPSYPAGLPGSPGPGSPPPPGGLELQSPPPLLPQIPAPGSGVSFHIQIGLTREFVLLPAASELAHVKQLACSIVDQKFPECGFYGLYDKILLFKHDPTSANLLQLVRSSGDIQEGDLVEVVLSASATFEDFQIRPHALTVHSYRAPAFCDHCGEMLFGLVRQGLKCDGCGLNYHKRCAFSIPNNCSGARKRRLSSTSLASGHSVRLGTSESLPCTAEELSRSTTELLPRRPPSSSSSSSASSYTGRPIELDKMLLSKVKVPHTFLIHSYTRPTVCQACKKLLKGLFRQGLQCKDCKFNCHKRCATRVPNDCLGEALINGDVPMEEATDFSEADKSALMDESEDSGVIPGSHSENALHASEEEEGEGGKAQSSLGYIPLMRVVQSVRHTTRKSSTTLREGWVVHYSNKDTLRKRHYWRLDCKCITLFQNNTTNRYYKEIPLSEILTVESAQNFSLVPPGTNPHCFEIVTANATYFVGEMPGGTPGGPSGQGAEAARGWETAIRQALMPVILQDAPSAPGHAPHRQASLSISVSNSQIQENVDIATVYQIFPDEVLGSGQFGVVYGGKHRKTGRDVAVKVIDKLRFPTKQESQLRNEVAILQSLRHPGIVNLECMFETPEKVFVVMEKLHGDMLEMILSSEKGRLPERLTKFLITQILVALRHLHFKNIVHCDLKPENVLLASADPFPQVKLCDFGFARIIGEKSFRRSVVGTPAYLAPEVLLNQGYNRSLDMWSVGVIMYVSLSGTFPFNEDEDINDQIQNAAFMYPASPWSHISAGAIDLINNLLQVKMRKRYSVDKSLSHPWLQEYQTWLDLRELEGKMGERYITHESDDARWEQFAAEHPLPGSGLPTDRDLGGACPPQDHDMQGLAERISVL
Test: PKD2 screening assay (in vitro radiometric kinase assay)
Format: biochemical
Conditions: 10 min; ESI table, initial screening of all analogues at 1µM; read-out: % PKD2 activity remaining (1µM) (average ±SD)
Each record is given Satisfied if its reported remaining activity at 1 µM is strictly below 70%. Records at or above 70% are given Not satisfied.

[
  {
    "TEST SMILES": "Cn1nc(Cc2cccc3ccccc23)c2c(N)ncnc21",
    "CLASS": "Satisfied"
  },
  {
    "TEST SMILES": "CC(C)(C)n1nc(CCCCc2ccccc2)c2c(N)ncnc21",
    "CLASS": "Not satisfied"
  },
  {
    "TEST SMILES": "CC(C)(C)n1nc(-c2ccccc2F)c2c(N)ncnc21",
    "CLASS": "Not satisfied"
  },
  {
    "TEST SMILES": "CC(C)(C)n1nc(Cc2cccc(Cl)c2Cl)c2c(N)ncnc21",
    "CLASS": "Not satisfied"
  },
  {
    "TEST SMILES": "CC(C)(C)n1nc(-c2cccc3ccccc23)c2c(N)ncnc21",
    "CLASS": "Satisfied"
  }
]
